system: Escherichia coli TOP10; assay: shrunken log2 fold change of peptide-encoding DNA abundance (4.5 h post-induction vs induction); higher = less antimicrobial activity (less host growth inhibition); conditions: time post-induction: 4.5 h; library: site-saturation at positions 5, 18, 19, 20
Categories are assigned from the measured shrunken log2 fold change using these intervals: low-valued (below -0.2), mid-valued (-0.2 to below 0.07), high-valued (0.07 or more)

Observe how each entry below is paired with its result.
Polymer Sequence	Target Of Assay	Answer Label
RRIRKRPPRLPRPRPRPIDFPRP	Escherichia coli TOP10	high-valued
RRIRFRPPRLPRPRPRPTYNPRP	Escherichia coli TOP10	low-valued
RRIRERPPRLPRPRPRPALFPRP	Escherichia coli TOP10	high-valued
RRIRCRPPRLPRPRPRPMGGPRP	Escherichia coli TOP10	high-valued

Category of RRIRTRPPRLPRPRPRPYPFPRP , please.
mid-valued

Category of RRIRSRPPRLPRPRPRPAEIPRP , please.
mid-valued

Category of RRIRRRPPRLPRPRPRPRIKPRP , please.
high-valued

Category of RRIRIRPPRLPRPRPRPPFIPRP , please.
low-valued

----------
system: Escherichia coli TOP10; test: shrunken log2 fold change of peptide-encoding DNA abundance (4.5 h post-induction vs induction); higher = less antimicrobial activity (less host growth inhibition); conditions: time post-induction: 4.5 h; library: site-saturation at positions 5, 18, 19, 20
Label satisfied when shrunken log2 fold change is at or above -0.09; anything below gets not satisfied.

Observe how each entry below is paired with its result.
Polymer Sequence	Answer Label
RRIRGRPPRLPRPRPRPTIWPRP	satisfied
RRIRQRPPRLPRPRPRPRWMPRP	satisfied

Does the reported shrunken log2 fold change for RRIRCRPPRLPRPRPRPAEEPRP fall at or above the -0.09 mark?
not satisfied

----------
test system: Escherichia coli TOP10; experiment: shrunken log2 fold change of peptide-encoding DNA abundance (4.5 h post-induction vs induction); higher = less antimicrobial activity (less host growth inhibition); settings: time post-induction: 4.5 h; library: site-saturation at positions 5, 18, 19, 20
Each entry below carries its reported shrunken log2 fold change.
Output spec: single numeric token, no unit.

Below, each entry is followed by its recorded shrunken log2 fold change result.
Polymer Sequence	shrunken log2 fold change
RRIRQRPPRLPRPRPRPSHAPRP	-0.107
RRIRCRPPRLPRPRPRPPSCPRP	-0.0847
RRIRQRPPRLPRPRPRPCYSPRP	-0.0444

Recorded shrunken log2 fold change (sequence RRIRLRPPRLPRPRPRPWVEPRP ): -0.186

Recorded shrunken log2 fold change (sequence RRIRFRPPRLPRPRPRPILWPRP ): -0.0429

Recorded shrunken log2 fold change (sequence RRIRQRPPRLPRPRPRPVCPPRP ): -0.0461

Recorded shrunken log2 fold change (sequence RRIRWRPPRLPRPRPRPVQSPRP ): 0.0186

Recorded shrunken log2 fold change (sequence RRIRNRPPRLPRPRPRPRAYPRP ): 0.0694

Recorded shrunken log2 fold change (sequence RRIRMRPPRLPRPRPRPHNPPRP ): -0.329

----------
Each entry below carries its reported shrunken log2 fold change.
tested on: Escherichia coli TOP10; assay: shrunken log2 fold change of peptide-encoding DNA abundance (4.5 h post-induction vs induction); higher = less antimicrobial activity (less host growth inhibition); conditions: time post-induction: 4.5 h; library: site-saturation at positions 5, 18, 19, 20
Output spec: single numeric token, no unit.

Below, each entry is followed by its recorded shrunken log2 fold change result.
Polymer Sequence	Parameter	Measured
RRIRKRPPRLPRPRPRPNLCPRP	shrunken log2 fold change	0.118
RRIRQRPPRLPRPRPRPLEAPRP	shrunken log2 fold change	0.225
RRIRTRPPRLPRPRPRPKLWPRP	shrunken log2 fold change	0.401
RRIRWRPPRLPRPRPRPWGYPRP	shrunken log2 fold change	0.0906
RRIRFRPPRLPRPRPRPCNCPRP	shrunken log2 fold change	-0.166
RRIRTRPPRLPRPRPRPHWCPRP	shrunken log2 fold change	-0.00994
RRIRSRPPRLPRPRPRPEMRPRP	shrunken log2 fold change	0.84
RRIRARPPRLPRPRPRPEHGPRP	shrunken log2 fold change	0.0464
RRIRERPPRLPRPRPRPFLPPRP	shrunken log2 fold change	-0.701
RRIRSRPPRLPRPRPRPWNHPRP	shrunken log2 fold change	-0.0307

Recorded shrunken log2 fold change (sequence RRIRARPPRLPRPRPRPMWIPRP ): 0.249

Recorded shrunken log2 fold change (sequence RRIRFRPPRLPRPRPRPAEAPRP ): 0.254

----------
test system: Escherichia coli TOP10; assay: shrunken log2 fold change of peptide-encoding DNA abundance (4.5 h post-induction vs induction); higher = less antimicrobial activity (less host growth inhibition); conditions: time post-induction: 4.5 h; library: site-saturation at positions 5, 18, 19, 20
Each entry below carries its reported shrunken log2 fold change.

Below, each entry is followed by its recorded shrunken log2 fold change result.
Polymer Sequence	Parameter	Measured
RRIRERPPRLPRPRPRPALRPRP	shrunken log2 fold change	0.0887
RRIRFRPPRLPRPRPRPVSRPRP	shrunken log2 fold change	-0.145

Alright, here's another sequence for you.
Recorded shrunken log2 fold change (sequence RRIRQRPPRLPRPRPRPQSRPRP ): 0.00465

----------
Each entry below carries its reported shrunken log2 fold change.
system: Escherichia coli TOP10; experiment: shrunken log2 fold change of peptide-encoding DNA abundance (4.5 h post-induction vs induction); higher = less antimicrobial activity (less host growth inhibition); details: time post-induction: 4.5 h; library: site-saturation at positions 5, 18, 19, 20
Output spec: single numeric token, no unit.

Recorded shrunken log2 fold change (sequence RRIRRRPPRLPRPRPRPICAPRP ): 0.127

----------
tested on: Escherichia coli TOP10; assay: shrunken log2 fold change of peptide-encoding DNA abundance (4.5 h post-induction vs induction); higher = less antimicrobial activity (less host growth inhibition); conditions: time post-induction: 4.5 h; library: site-saturation at positions 5, 18, 19, 20
Each entry below carries its reported shrunken log2 fold change.
Output spec: single numeric token, no unit.

Below, each entry is followed by its recorded shrunken log2 fold change result.
Polymer Sequence	Measured
RRIRSRPPRLPRPRPRPFHNPRP	-0.0339
RRIRPRPPRLPRPRPRPKKKPRP	-0.192

Recorded shrunken log2 fold change (sequence RRIRNRPPRLPRPRPRPQEMPRP ): -0.218

Recorded shrunken log2 fold change (sequence RRIRMRPPRLPRPRPRPWIIPRP ): -0.0943

Recorded shrunken log2 fold change (sequence RRIRYRPPRLPRPRPRPVKLPRP ): 0.0698

----------
Each entry below carries its reported shrunken log2 fold change.
system: Escherichia coli TOP10; assay: shrunken log2 fold change of peptide-encoding DNA abundance (4.5 h post-induction vs induction); higher = less antimicrobial activity (less host growth inhibition); settings: time post-induction: 4.5 h; library: site-saturation at positions 5, 18, 19, 20
Output spec: single numeric token, no unit.

Below, each entry is followed by its recorded shrunken log2 fold change result.
Polymer Sequence	Target Of Assay	Measured
RRIRNRPPRLPRPRPRPMNHPRP	Escherichia coli TOP10	0.0515
RRIRHRPPRLPRPRPRPPRSPRP	Escherichia coli TOP10	0.704
RRIRFRPPRLPRPRPRPCSFPRP	Escherichia coli TOP10	-0.349
RRIRPRPPRLPRPRPRPHFMPRP	Escherichia coli TOP10	-0.231
RRIRDRPPRLPRPRPRPDYWPRP	Escherichia coli TOP10	-0.00116
RRIRNRPPRLPRPRPRPKNGPRP	Escherichia coli TOP10	0.96
RRIRFRPPRLPRPRPRPRWPPRP	Escherichia coli TOP10	0.327
RRIRGRPPRLPRPRPRPIGPPRP	Escherichia coli TOP10	0.5
RRIRLRPPRLPRPRPRPRRYPRP	Escherichia coli TOP10	-0.00737
RRIRRRPPRLPRPRPRPPTSPRP	Escherichia coli TOP10	0.54

Recorded shrunken log2 fold change (sequence RRIRTRPPRLPRPRPRPQRYPRP ): -0.127

Recorded shrunken log2 fold change (sequence RRIRHRPPRLPRPRPRPSALPRP ): -0.243

Recorded shrunken log2 fold change (sequence RRIRDRPPRLPRPRPRPFDKPRP ): -0.0665

Recorded shrunken log2 fold change (sequence RRIRQRPPRLPRPRPRPLNKPRP ): -0.503

Recorded shrunken log2 fold change (sequence RRIRARPPRLPRPRPRPYFNPRP ): -0.71

----------
system: Escherichia coli TOP10; assay: shrunken log2 fold change of peptide-encoding DNA abundance (4.5 h post-induction vs induction); higher = less antimicrobial activity (less host growth inhibition); conditions: time post-induction: 4.5 h; library: site-saturation at positions 5, 18, 19, 20;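 note: peptides expressed intracellularly from a pBAD plasmid library in pooled LB shake-flask culture, induced with 0.3% L-arabinose, DNA abundance read by NGS, three biological replicates, DESeq2 with apeglm shrinkage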
Parameter: shrunken log2 fold change
Output spec: single numeric token, no unit.

Below, each entry is followed by its recorded shrunken log2 fold change result.
Polymer Sequence	shrunken log2 fold change
RRIRCRPPRLPRPRPRPCHLPRP	-0.206
RRIRWRPPRLPRPRPRPSKWPRP	-0.327
RRIRMRPPRLPRPRPRPDYTPRP	-0.0182

Alright, here's another sequence for you.
Recorded shrunken log2 fold change (sequence RRIRVRPPRLPRPRPRPMVLPRP ): -0.19

Attribution: the supplement of paper PMC9112550
